Assay: qHTS Assay for Inhibitors of Hepatitis C Virus (HCV)
Conditions: Huh7.5.1 HCVcc-Cre infection, luciferase reporter, 44 h; series mostly up to 41.8 µM
The whole screen tested about 340,000 compounds, of which about 12,000 (3.5%) were called active. Roughly 18% stayed inconclusive and do not appear here. Calls follow the shape of the dose curve; as a rule, active = well fitted inhibition curve with a large enough effect; inconclusive = small, poorly fitted or top-dose-only effect, or another doubt; inactive = no such curve, though single readings can be large or run the other way. Shown is part of a subset that was picked to be rich in actives.
Respond with a class label; see active, inactive

In: Which result was noted for this molecule in the test: CCOc1cc(NC(=S)NCc2ccco2)c(OCC)cc1NC(=O)c1ccco1
Out: active

In: Which outcome did this test record for the molecule Cc1ccccc1NC(=O)Cc1nc(COC(=O)c2cccnc2Cl)cs1 ?
Out: inactive

In: Just curious, what result did Cc1ccc(S(=O)(=O)N2CCN(C(=O)c3cc(S(=O)(=O)N4CCOCC4)ccc3F)CC2)cc1 get here?
Out: inactive

In: Just curious, what result did CC(C)COc1ccc(C(=O)NNC(=O)CCC(=O)c2cccs2)cc1 get here?
Out: inactive

In: Short answer needed: outcome of this test for C[C@@H]1CN([C@@H](C)CO)C(=O)c2cccc(NS(=O)(=O)c3ccc(F)cc3)c2O[C@H]1CN(C)C(=O)NC1CCCCC1 ?
Out: inactive

In: Per the records of this test, what outcome belongs to Nc1nc(Nc2ccccc2)nc(NCCO)c1[N+](=O)[O-] ?
Out: inactive

In: Hi team, can someone confirm the assay call for CCCCn1c(N)c(N(CC(C)C)C(=O)c2cnc(C)cn2)c(=O)[nH]c1=O ?
Out: inactive

In: Look up the recorded call for CC1(C)N=C(N)NC(Nc2ccc(Cl)cc2)=N1 in this test.
Out: inactive

In: Assay outcome for CCCCn1c(N)c(N(CC(C)C)C(=O)CN(C)S(=O)(=O)c2ccc(F)cc2)c(=O)[nH]c1=O : what was it?
Out: inactive

In: Dear colleague, could you share the recorded outcome for CCNS(=O)(=O)c1ccc(CCC(=O)N2CCN(c3ccc(OC)cc3)CC2)cc1 when you have a moment?
Out: inactive

In: Please indicate how the test categorized CCOc1cc(NC(=O)c2ccco2)c(OCC)cc1NC(=O)COc1ccccc1 .
Out: inactive

In: What call does the record list for Cc1cccc(Nc2nnc(SCC(=O)c3c(N)n(C4CC4)c(=O)[nH]c3=O)s2)c1C ?
Out: inactive

In: Per the assay record, what outcome was assigned to C#CCOCCOCCOCCNc1nc(N2CCN(C(=O)[C@H](CCCCN)n3cc(CCC(=O)O)nn3)CC2)nc(N2CCN(C(=O)[C@H](CCCCN)n3cc(CC(C)O)nn3)CC2)n1 (stereo not given in full) ?
Out: inactive

In: Field: outcome | Entry: CCCNS(=O)(=O)c1ccc(CCC(=O)N2CCCC2)cc1
Out: inactive

In: Recorded test call requested for COc1cc(C)ccc1OCC(=O)OCC(=O)c1ccc[nH]1
Out: inactive

In: For CCNS(=O)(=O)c1ccc(CCC(=O)N2CCN(c3cc(Cl)ccc3C)CC2)cc1 , which call appears in the assay record?
Out: active

In: # lookup: test call for COc1ccccc1NC1=NC(c2ccc(Cl)cc2)N=C(N)N1 (stereo not given)
Out: active

In: What did this assay record as the result for COc1ccccc1NC1=NC2(CCCC2)N=C(N)N1 ?
Out: inactive

In: Short answer needed: outcome of this test for Cc1cc(NC(=O)C(C)N2C(=O)c3ccccc3S2(=O)=O)no1 (stereo not given) ?
Out: inactive

In: Please let me know the test result on file for Nc1nc(NCCCN2CCOCC2)nc(Nc2ccccc2)c1[N+](=O)[O-] .
Out: inactive
